# Subject of test: Factor X, P00742
# Sequence (P00742 whole entry, looked up): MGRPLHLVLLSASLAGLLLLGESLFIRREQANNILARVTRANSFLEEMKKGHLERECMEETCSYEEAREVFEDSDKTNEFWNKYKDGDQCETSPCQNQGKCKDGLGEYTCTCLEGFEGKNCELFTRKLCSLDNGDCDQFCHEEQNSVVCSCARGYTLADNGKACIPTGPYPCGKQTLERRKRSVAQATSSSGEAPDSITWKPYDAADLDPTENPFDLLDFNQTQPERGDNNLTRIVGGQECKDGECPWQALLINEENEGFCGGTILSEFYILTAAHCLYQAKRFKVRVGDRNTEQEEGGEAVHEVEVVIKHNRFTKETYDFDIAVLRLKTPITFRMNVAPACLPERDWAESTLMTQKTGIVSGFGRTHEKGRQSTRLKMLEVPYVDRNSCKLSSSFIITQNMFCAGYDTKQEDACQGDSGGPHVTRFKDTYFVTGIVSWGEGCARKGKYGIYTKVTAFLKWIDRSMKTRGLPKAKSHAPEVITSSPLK
Quantity name: % of WT kcat/KM (%)
Answer with a number only, understood to be in %.

Record summary for FIXa-Y155F/K247N/N249S/N260S (protein) chain 1: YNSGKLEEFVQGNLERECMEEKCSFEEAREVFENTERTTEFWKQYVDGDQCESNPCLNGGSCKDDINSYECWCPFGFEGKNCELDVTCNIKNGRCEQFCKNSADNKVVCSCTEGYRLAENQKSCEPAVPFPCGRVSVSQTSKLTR chain 2: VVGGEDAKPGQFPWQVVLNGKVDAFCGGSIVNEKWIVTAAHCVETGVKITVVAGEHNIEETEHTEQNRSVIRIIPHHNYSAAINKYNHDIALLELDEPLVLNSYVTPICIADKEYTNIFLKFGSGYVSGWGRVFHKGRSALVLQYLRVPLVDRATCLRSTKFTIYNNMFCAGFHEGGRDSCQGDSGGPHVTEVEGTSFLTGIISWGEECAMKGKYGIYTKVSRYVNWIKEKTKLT : reported % of WT kcat/KM = 43
